Assay: A549 lung cancer cell viability effects, profiling panel, resazurin fluorescence, 24 h, PK04 Diversity Set (AID 1171); further: test concentration not given here
Settings: higher = more signal, called active from +8 up or from −8 down
Metric name: z-score
Lab note: jot down the number only; don't add units.

Can you look up the measured z-score of O=C1CCCC2OC12C(O)CCc1ccccc1 (configuration not stated) for me? -0.81

Same again, this time with CC(C)CON=C1C[C@@H](O)[C@@H](O)[C@@H]2[C@@H]3C(=O)N(C[C@@H]4CCCO4)C(=O)[C@@H]3CC[C@H]12 0.322

Same again, this time with CCN1C(=O)[C@H]2[C@H]3[C@H](O)[C@H](O)CC(=NO[C@@H]4O[C@H](CO)[C@@H](O)[C@H](O)[C@H]4O)[C@@H]3CC[C@H]2C1=O -0.859

Same again, this time with C=CCNC(=O)[C@H]1[C@@H]2C(=O)O[C@@H](c3ccccc3)[C@@H](c3ccccc3)N2[C@@H](c2ccc(O)cc2)[C@]12C(=O)N(C(=O)OCCOC)c1ccc(C#CC3=CCCCC3)cc12 0.512

Same again, this time with COC(=O)[C@@]1(Cc2ccc(OC)cc2)[C@H]2c3cc(C(=O)N4CCCC4)n(Cc4cc(F)c(F)c(F)c4)c3C[C@H]2CN1C(=O)c1ccccc1 -1.08

Same again, this time with CC(=O)OC[C@H]1O[C@@H](ON=C[C@@H](C)[C@H](OCc2ccccc2)C(C)C)[C@H](OC(C)=O)[C@@H](OC(C)=O)[C@@H]1OC(C)=O -1.23

Same again, this time with CC(CCC(=O)OC[C@H]1O[C@H](C#Cc2ccccc2)C=C[C@@H]1Oc1ccc(C)cc1)=NOC[C@@H](O)COCc1ccco1 -0.0838
